Data origin, for the record: the supplement of paper PMC10567573

B1: ZNF511 (parent)
chain: HLYPADFRFDKPKKSRSPASAEAP

Variants of: B1
Assay: protein stability index of a GFP-peptide fusion (GPS, HEK-293T) (PSI 1-6); higher = more stable;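 further: lentivirally expressed fusions sorted by FACS into six bins by GFP to DsRed ratio, PSI derived from sequencing read proportions per bin multiplied by bin number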
Conditions: c terminus: a fixed tail appended
Give measured protein stability index for each item. Keep answers brief.
Lab note: record just the number, no unit beside it.

-- ask Which protein stability index is reported for this variant? HLYPADFRFDKEKKSRSPASAEAP
-- reply 3.69

-- ask Same lookup for HLYKADFRFDKPKKSRSPASAEAP , please.
-- reply 4.5

-- ask Okay, and HLYPADFRFDKPKKSRWPASAEAP ?
-- reply 2.27

-- ask Subsequent entry: HLYPADFRFDKPKKSRSPASAPAP
-- reply 2.91

-- ask Now try HLYPADFRFDKPKKSRSPKSAEAP .
-- reply 3.54

-- ask Entry to check: HLYPADFRFDKPKKSRSPASAEAK
-- reply 2.97

-- ask HLYPADFRFDKPKKSRMPASAEAP ?
-- reply 2.77

-- ask And what about the variant HLYPADFRFDKPKKSRSPASAEMP ?
-- reply 2.53

-- ask Now give it for HMYPADFRFDKPKKSRSPASAEAP too.
-- reply 3.35

-- ask Note, next up: HLYPADFRADKPKKSRSPASAEAP
-- reply 1.29

-- ask Do the same for HLYPADFRFDMPKKSRSPASAEAP please
-- reply 2.62

-- ask Please give the result for HLYPADFRFDKPKKSRSCASAEAP too.
-- reply 2.97

-- ask Now the variant HLYPADFRFDKPKKSRSIASAEAP
-- reply 2.96

-- ask Try this variant too: HLYPADFRFDKPKKSRSPASTEAP
-- reply 2.75

-- ask Queued: HLYTADFRFDKPKKSRSPASAEAP
-- reply 3.77

-- ask Next record, please: HLYPADFRFDKPKKSQSPASAEAP
-- reply 3.28

-- ask Would you kindly repeat that for HLYPADFRFDKPKKSRSPASAEQP ?
-- reply 3.06

-- ask What do you have for HLYPADFRFYKPKKSRSPASAEAP ?
-- reply 2.87

-- ask Try HLYPADCRFDKPKKSRSPASAEAP next.
-- reply 4.29

-- ask Also HLYPADFRFDKPNKSRSPASAEAP ?
-- reply 2.7

-- ask Also need HLYPADFRFHKPKKSRSPASAEAP , thanks.
-- reply 1.52

-- ask Param item: HLYPADFRRDKPKKSRSPASAEAP
-- reply 3.71
